src = patent EP4385980A1

Molecular target: human NaV1.8 (Homo sapiens, UniProt Q9Y5Y9)
Sequence (Q9Y5Y9 whole entry): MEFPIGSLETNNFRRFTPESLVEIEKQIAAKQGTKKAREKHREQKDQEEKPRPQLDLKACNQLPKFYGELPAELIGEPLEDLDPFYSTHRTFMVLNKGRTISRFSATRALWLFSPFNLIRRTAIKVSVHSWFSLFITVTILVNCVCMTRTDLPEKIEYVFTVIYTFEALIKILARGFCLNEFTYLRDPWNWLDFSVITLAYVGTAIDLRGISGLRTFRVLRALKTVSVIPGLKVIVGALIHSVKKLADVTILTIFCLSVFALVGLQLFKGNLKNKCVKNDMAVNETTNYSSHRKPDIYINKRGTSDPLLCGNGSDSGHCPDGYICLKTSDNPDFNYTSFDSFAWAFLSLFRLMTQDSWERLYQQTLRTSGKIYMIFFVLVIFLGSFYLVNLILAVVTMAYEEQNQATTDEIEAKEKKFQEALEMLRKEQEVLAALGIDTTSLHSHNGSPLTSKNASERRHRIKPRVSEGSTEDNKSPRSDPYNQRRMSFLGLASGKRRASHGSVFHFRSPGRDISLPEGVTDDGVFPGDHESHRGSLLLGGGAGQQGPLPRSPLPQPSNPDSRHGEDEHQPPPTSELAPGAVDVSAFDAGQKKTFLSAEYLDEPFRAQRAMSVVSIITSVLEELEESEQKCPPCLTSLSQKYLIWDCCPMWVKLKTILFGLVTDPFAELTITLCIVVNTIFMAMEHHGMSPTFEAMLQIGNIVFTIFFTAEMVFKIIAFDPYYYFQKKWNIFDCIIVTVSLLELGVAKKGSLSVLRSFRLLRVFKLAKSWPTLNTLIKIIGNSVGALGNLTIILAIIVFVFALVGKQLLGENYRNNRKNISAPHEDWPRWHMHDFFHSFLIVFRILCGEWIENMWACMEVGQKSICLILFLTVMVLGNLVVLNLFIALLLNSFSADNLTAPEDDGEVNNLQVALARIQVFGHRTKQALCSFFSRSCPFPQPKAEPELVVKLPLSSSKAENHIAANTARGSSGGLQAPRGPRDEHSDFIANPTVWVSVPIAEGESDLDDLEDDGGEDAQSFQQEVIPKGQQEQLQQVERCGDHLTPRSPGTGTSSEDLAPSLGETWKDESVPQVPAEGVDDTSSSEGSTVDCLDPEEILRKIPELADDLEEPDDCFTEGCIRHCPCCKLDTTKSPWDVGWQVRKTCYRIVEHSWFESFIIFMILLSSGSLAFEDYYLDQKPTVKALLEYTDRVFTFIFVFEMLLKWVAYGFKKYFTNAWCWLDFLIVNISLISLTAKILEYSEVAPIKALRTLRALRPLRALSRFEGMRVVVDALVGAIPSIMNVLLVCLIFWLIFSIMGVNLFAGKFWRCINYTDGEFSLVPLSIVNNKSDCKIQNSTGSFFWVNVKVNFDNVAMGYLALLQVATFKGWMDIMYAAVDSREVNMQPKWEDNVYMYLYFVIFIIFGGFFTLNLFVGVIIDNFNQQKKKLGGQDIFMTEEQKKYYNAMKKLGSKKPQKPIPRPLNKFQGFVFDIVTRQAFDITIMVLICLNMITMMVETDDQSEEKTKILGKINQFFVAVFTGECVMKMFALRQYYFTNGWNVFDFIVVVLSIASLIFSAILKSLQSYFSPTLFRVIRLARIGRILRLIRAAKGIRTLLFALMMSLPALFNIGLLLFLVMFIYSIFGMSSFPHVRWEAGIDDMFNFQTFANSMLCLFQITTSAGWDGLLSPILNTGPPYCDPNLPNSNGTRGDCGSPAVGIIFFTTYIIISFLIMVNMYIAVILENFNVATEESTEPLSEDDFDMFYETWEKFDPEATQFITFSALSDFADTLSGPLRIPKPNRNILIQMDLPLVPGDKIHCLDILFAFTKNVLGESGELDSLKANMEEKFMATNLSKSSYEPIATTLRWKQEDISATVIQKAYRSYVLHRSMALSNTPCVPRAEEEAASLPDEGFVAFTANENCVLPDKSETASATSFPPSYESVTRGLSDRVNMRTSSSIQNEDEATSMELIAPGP
Sequence (Q9NY72 23-215 partner): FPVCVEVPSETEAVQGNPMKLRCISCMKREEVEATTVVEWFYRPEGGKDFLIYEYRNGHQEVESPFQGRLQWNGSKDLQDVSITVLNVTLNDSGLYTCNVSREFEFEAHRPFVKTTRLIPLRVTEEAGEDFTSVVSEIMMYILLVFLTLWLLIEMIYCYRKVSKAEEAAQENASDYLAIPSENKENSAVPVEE
Experiment: Electrophysiology: voltage-clamp recordings (whole-cell automated patch clamp, Qube384)
Conditions: HEK-NaV1.8 with b3 recombinant cell line, ambient room temperature, read-out: Potency category (human NaV1.8 IC50)
Experimental: The following NaV1.8 recombinant cell line was used for recordings: HEK-NaV1.8 (NM_006514.1) with b3 (NM_018400.3). Sodium currents were measured using the patch clamp technique in the whole-cell configuration using the Qube384 (Sophion A/S, Copenhagen, Denmark) automated voltage clamp platform. […] The adjusted inhibition was calculated as follows: % Inhibitioncorrected = 100 × (NormCPD −NormVEH)/(100−NormVEH) [formula] […]
pIC50: −log10 of the molar value.
Property: pIC50

Solved entries:
Compound	Value reported
O=C(Nc1ccnc(O)c1)c1c2ccc(F)cc2nn1CC1CCC(F)(F)CC1	6.00 to 7.00
NS(=O)(=O)c1cc(NC(=O)c2c3ccc(F)cc3nn2CC2CCCCC2)ccn1	≥ 7.00
NS(=O)(=O)c1cccc(NC(=O)c2c3cccc(C4CC4)c3nn2CC2CCOCC2)c1	≥ 7.00
Cc1ccc2nn(CC3CCCCC3)c(C(=O)Nc3cccc(S(C)(=O)=O)c3)c2c1	6.00 to 7.00
O=C(Nc1ccnc(O)c1)c1c2cccc(C(F)(F)F)c2nn1CC1CCCCC1	≥ 7.00

Which pIC50 reading was recorded for the compound NS(=O)(=O)c1cccc(NC(=O)c2c3ccccc3nn2CC2CCCO2)c1 (racemic) ? 5.00 to 6.00

Now consider CS(=O)(=O)c1cccc(NC(=O)c2c3ccccc3nn2CC2CCOCC2)c1 . 5.00 to 6.00

Now consider CS(=O)(=O)c1cccc(NC(=O)c2c3ccccc3nn2CC2CCCCO2)c1 (stereo not drawn) . 6.00 to 7.00

Now consider NC(=O)c1cc(NC(=O)c2c3ccc(F)cc3nn2CC2CCCCC2)ccn1 . ≥ 7.00
